Hey, just so you know, these numbers are from the nanobody polyreactivity screen of Harvey et al. (2022).

assay: yeast display, Sf9 membrane polyspecificity reagent, FACS + sequencing; frameworks hold sequencing errors
Reported Metric: polyreactivity (PSR sort gate)

>  <Sequence Content>
QVQLGESGGGLVQAGGSLRLSCAPSGSTFNRFARGWYILAPGNVRELVAAISRSGGSTYYADSVKGRFTISRDNPKTTLYLQMNSLKPEDTAVYYCAADRTGHGFGYWGQGTQVTVSS

>  <Test Value>
high polyreactivity

$$$$
>  <Sequence Content>
EVQLVESGGGLVQPGGSLRLSCAASGYIYSRYRMGWYRQAPGKGREFVAAISGGSSTNYADSVKGRFTISRDNSKYTVYLQMNSLRAEDTAVYYCAAFKIDSDPRVYWGQGTQVTVSS

>  <Test Value>
low polyreactivity

$$$$
>  <Sequence Content>
QVQLVESGGGLVQAGGSLRLSCAASGFIFDGYAMGWYRPAPGKERELVAAIDSGGDRTYYADSVKGRFTISRDNAKNTVYLQMNSLKPEDTAVYYCAADSSDPTGYDYWGQGTQVTVSS

>  <Test Value>
low polyreactivity

$$$$
>  <Sequence Content>
QVQLVESGGGLVQAGGSLRLSCAASGRIIPYYAMGWYRQAPGKERELVAAISSSGGRTYYADSVKGRFTISRDNAKNTVYLQMNSLKPEDTAVYYCAAGFPTFGWDKVRFIMYYWGQGTQVTVSS

>  <Test Value>
high polyreactivity

$$$$
>  <Sequence Content>
QVQLVESGGGLVQAGGSLRLSCAASGFTFKYYAMGWYRQAPGQERELVAAISSTGSTYYADSVKGRFTISRDNAKNTVYLQTNSLKPEDTAVYYCNKLFEYWGGDNDYWGRGTQVTVSS

>  <Test Value>
high polyreactivity

$$$$
